Experiment notes: Ratio of cytotoxicity against CHO-MG cells and CHO cells
Assay type: functional
Experimental readout: IC50 ratio
In your answer, state the number alone without any accompanying words.

NCCCNCCCCNCCCCNCc1c2ccccc2cc2ccccc12
0.7
NCCCCNCCCCNCCCCNCc1c2ccccc2cc2ccccc12
3.1
NCCCNCCCCNCCCNCCCCNC(=O)c1c2ccccc2nc2ccccc12
1.2
NCCCCNCCCCCNCCCNCc1c2ccccc2cc2ccccc12
1.2
NCCCNCCCCNCCCNCc1c2ccccc2cc2ccccc12
1.3
NCCCCNCCCCCNCCCCCNCc1c2ccccc2cc2ccccc12
1.4
NCCCNCCCCNCCCNCCCCN=c1c2ccccc2[nH]c2ccccc12
3.1
NCCCCNCCCCNCCCCCNCc1c2ccccc2cc2ccccc12
3.1

Ask | Record request: IC50 ratio value, item NCCCCNCCCNCCCNCc1c2ccccc2cc2ccccc12
Reply | 0.9

Ask | Record request: IC50 ratio value, item NCCCCNCCCCNCCCNCc1c2ccccc2cc2ccccc12
Reply | 1.7

Ask | Record request: IC50 ratio value, item NCCCNCCCCNCCCCCNCc1c2ccccc2cc2ccccc12
Reply | 1.9
